- Target Or Test System: Neutrophil elastase (Homo sapiens, UniProt P08246)
- Sequence (P08246 whole entry): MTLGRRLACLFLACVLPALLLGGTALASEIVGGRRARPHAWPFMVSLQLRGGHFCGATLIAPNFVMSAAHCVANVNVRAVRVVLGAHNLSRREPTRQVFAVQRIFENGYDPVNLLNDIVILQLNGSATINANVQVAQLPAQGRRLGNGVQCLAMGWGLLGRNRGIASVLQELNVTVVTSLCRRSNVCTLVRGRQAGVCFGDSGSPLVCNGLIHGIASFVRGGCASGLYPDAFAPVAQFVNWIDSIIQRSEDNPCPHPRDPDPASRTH
- Assay Summary: Second-order rate constant for the inhibition of human leukocyte elastase
Endpoint Label: pIC50
The read-out pIC50 is expressed as -log10 of concentration in moles per litre.

Indicate the recorded pIC50 value for this compound: CO[C@H]1C(=O)N2C(C(=O)O)=C(CF)CS(=O)(=O)C12 (stereo partly specified)
3.96
